Data origin: ChEMBL document CHEMBL4351021

Parameter: logD at 100 µM. Scope: all listed entries.
Test: Lipophilicity, logD of compound in 1-octanol and PBS mixture in pH 7.4 at 100 uM incubated for 24 under shaking condition by HPLC analysis
Assay type: physicochemical
Settings: 1-octanol/PBS

Please review the entries below; each comes with its answer.
O=C(O)COc1ccc(NCc2cccc(-c3ccccc3)c2)cc1F; 2.25
Cc1cc(O)ccc1-c1cccc(CNc2ccc(OCC(=O)O)c(F)c2)c1; 1.85
O=C(O)COc1ccc(NCc2cccc(-c3ccccc3F)c2)cc1F; 2.36
COCCOc1ccc(-c2cccc(CNc3ccc(OCC(=O)O)c(F)c3)c2)c(C)c1; 2.23
O=C(O)COc1ccc(NCc2ccc(Cl)c(-c3ccccc3)c2)cc1F; 2.74

Reported logD at 100 µM ( Cc1cc(OCCCS(C)(=O)=O)ccc1-c1cccc(CNc2ccc(OCC(=O)O)c(F)c2)c1 ) = 1.59

logD at 100 µM in this record for CCCOc1ccc(-c2cccc(CNc3ccc(OCC(=O)O)c(F)c3)c2)c(C)c1 : 3.37

Looking up CCOc1cc(C)c(-c2cccc(CNc3ccc(OCC(=O)O)c(F)c3)c2)c(C)c1 , I see its logD at 100 µM listed as 3.04

// recorded logD at 100 µM for Cc1cc(OCCO)ccc1-c1cccc(CNc2ccc(OCC(=O)O)c(F)c2)c1 : 1.65

So, Cc1ccccc1-c1cccc(CNc2ccc(OCC(=O)O)c(F)c2)c1 ? Its logD at 100 µM was 2.41

###

Test: Clearance in Sprague-Dawley rat at 10 mg/kg, po measured for […] by LC-MS/MS analysis
Assay type: ADME, organism-based
Settings: Sprague-Dawley, in vivo
value_type: CL/F (mL/min/kg)
All answers are understood in mL/min/kg, so give the number only.

compound Cc1ccccc1-c1cccc(CNc2ccc(OCC(=O)O)c(F)c2)c1 , CL/F observed: 0.109

###

Test: AUC (0 to 24 hrs) in Sprague-Dawley rat at 10 mg/kg, po measured for […] by LC-MS/MS analysis
Format: ADME, organism-based
Design: time < 24 hr, dose 10 mg/kg, route oral
Conditions: Sprague-Dawley, in vivo
value_type: AUC(0-t) at 24 h
Express the reported value numerically, then name its unit.

Record Cc1ccccc1-c1cccc(CNc2ccc(OCC(=O)O)c(F)c2)c1 , field AUC(0-t) at 24 h: 2870 µg·h/mL
